Measured viability values are reported for all entries that follow.
# protocol_text: reversal of MRP1-mediated doxorubicin resistance, pilot screen, H69AR cells, doxorubicin co-treatment (AID 601)
# test_parameters: H69AR cells, CellTiter-Glo, 72 h; compound alone cytotoxicity; at 10 µM
endpoint_label: viability (%)

- compound: "O=c1cc(-c2ccccc2)[nH]c2nc3ccccc3n12"
  readout_units: "%"
  recorded_measurement: 9.48
- compound: "Cc1cccc(C)c1NC(=O)C1CCCCN1C (stereo unspecified)"
  readout_units: "%"
  recorded_measurement: 99.7
- compound: "Cc1cc(NC(=O)CSc2nccn2-c2ccc(F)cc2)no1"
  readout_units: "%"
  recorded_measurement: 104
- compound: "CCCNCC(O)COc1ccccc1C(=O)CCc1ccccc1 (stereo unspecified)"
  readout_units: "%"
  recorded_measurement: 87.1
- compound: "O=c1ccc(S(=O)(=O)N2CCC(Cc3ccccc3)CC2)c[nH]1"
  readout_units: "%"
  recorded_measurement: 95.3
- compound: "CCCCSCCCNC(=O)CS(=O)Cc1nc(-c2cccc(C)c2)oc1C (stereo unspecified)"
  readout_units: "%"
  recorded_measurement: 87.5
